Ref: patent US10842151B2

# assayed.system: PYL2 + HAB1 (Arabidopsis thaliana)
# Construct: made in house; host or cells: E. coli BL21 (DE3)
# Sequence (O80992 14-188 limits assumed): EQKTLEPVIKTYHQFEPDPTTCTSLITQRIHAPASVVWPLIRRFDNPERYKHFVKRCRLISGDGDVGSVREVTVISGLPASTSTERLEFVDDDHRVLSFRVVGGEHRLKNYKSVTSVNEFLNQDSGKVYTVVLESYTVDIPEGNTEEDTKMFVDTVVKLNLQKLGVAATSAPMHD
# Sequence (Q9CAJ0 172-511 partner limits assumed): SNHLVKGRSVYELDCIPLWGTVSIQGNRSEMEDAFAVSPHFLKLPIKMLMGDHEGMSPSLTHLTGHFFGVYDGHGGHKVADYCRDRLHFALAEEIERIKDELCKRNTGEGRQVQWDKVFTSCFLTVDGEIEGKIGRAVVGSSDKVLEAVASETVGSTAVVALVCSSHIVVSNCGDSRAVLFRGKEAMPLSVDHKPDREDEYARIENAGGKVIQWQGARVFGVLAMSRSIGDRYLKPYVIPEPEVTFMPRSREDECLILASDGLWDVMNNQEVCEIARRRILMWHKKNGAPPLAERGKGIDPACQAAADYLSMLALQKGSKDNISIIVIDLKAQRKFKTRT
# procedure.summary: AlphaScreen experiment, PYL2 + HAB1
# Format: binding
# condition.notes: Half maximum effect concentration EC50 (PYL2 + HAB1), number in brackets
property.name: EC50 (nM)
Only the number, expressed in nM, is required.

Recorded result, CC1=CC(=O)CC(C)(C)[C@@]1(O)/C=C/C(C)=C\C(=O)O [ABA, Abscisic Acid, reference compound] , EC50: 410

###

# assayed.system: PYL2 + HAB1 (Arabidopsis thaliana, UniProt O80992)
# Construct: made in house; host or cells: E. coli BL21 (DE3)
# procedure.summary: AlphaScreen experiment, PYL2 + HAB1
# Format: binding
# condition.notes: Half maximum effect concentration EC50 (PYL2 + HAB1), class, class symbol
property.name: EC50

For record CC1=CC(=O)CC(C)(C)[C@@]1(O)/C=C/C(C)=C\C(=O)O [ABA, Abscisic Acid, reference compound] the listed EC50 is 100 to 1000 nM

###

# assayed.system: PYL7 + HAB1 (Arabidopsis thaliana, UniProt Q1ECF1)
# Construct: made in house; host or cells: E. coli BL21 (DE3)
# procedure.summary: AlphaScreen experiment, PYL7 + HAB1
# Type: binding
# condition.notes: Half maximum effect concentration EC50 (PYL7 + HAB1), number in brackets
property.name: EC50

The molecule identified as CC1=CC(=O)CC(C)(C)[C@@]1(O)/C=C/C(C)=C\C(=O)O [ABA, Abscisic Acid, reference compound] registered its EC50 at 1070 nM

###

# Test system: Arabidopsis Col-0 ecotype
# procedure.summary: Soil drought experiment, Arabidopsis
# Assay type: in vivo, Arabidopsis thaliana
# condition.notes: 5 μM sprayed; 18 days after drought
# Description: Seeds of Arabidopsis Col-0 ecotype were sterilized with NaClO and then sown on ½ MS solid medium at 4° C. for 3 days of vernalization. After 6 days of growing, the well-grown seedlings having uniform size were selected and transferred into 8×7×6 cm^3 pots. Each pot was filled with the same weight of soil and the same number of plants (six plants) was planted to reduce experimental error. […] During the whole drought period, the solution was sprayed twice in total and photos were recorded regularly. […]

- molecule: "CCCN1C(=O)CCc2cc(NS(=O)(=O)Cc3c(F)c(F)c(C)c(F)c3F)ccc21"
  plant survival: "still survived"
- molecule: "CCCN1C(=O)CCc2cc(NS(=O)(=O)Cc3ccc(C)c(F)c3F)ccc21"
  plant survival: "still survived"
- molecule: "CCCN1C(=O)CCc2cc(NS(=O)(=O)Cc3cc(F)c(C)c(F)c3)ccc21 [Compound 1125B]"
  plant survival: "still survived"

###

Overview of recorded pEC50 for various compounds
# assayed.system: PYL2 + HAB1 (Arabidopsis thaliana)
# Construct: made in house; host or cells: E. coli BL21 (DE3)
# procedure.summary: AlphaScreen experiment, PYL2 + HAB1
# Assay type: binding
# condition.notes: number in brackets; read-out: Half maximum effect concentration EC50 (PYL2 + HAB1)
In textbook form, pEC50 equals minus log to base ten of the concentration in mol/L.

Summary: CCCN1C(=O)CCc2cc(NS(=O)(=O)Cc3ccc(C)cc3)ccc21 [AM1, reference compound] , PYL2 + HAB1 (Arabidopsis thaliana), pEC50 = 6.32

GET /values?item= CCCN1C(=O)CCc2cc(NS(=O)(=O)Cc3ccc(C)cc3F)ccc21 [Compound 1125A] &system= PYL2 + HAB1 (Arabidopsis thaliana) returns pEC50: 7.52

###

# assayed.system: PYL7 + HAB1 (Arabidopsis thaliana)
# Construct: made in house; host or cells: E. coli BL21 (DE3)
# Sequence (Q1ECF1 1-211): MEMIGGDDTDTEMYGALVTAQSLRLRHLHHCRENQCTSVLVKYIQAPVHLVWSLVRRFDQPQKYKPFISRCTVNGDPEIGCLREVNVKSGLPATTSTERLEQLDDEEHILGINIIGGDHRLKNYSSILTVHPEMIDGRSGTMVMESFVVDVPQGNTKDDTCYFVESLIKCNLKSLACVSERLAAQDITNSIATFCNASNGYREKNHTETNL
# Sequence (Q9CAJ0 172-511 partner limits assumed): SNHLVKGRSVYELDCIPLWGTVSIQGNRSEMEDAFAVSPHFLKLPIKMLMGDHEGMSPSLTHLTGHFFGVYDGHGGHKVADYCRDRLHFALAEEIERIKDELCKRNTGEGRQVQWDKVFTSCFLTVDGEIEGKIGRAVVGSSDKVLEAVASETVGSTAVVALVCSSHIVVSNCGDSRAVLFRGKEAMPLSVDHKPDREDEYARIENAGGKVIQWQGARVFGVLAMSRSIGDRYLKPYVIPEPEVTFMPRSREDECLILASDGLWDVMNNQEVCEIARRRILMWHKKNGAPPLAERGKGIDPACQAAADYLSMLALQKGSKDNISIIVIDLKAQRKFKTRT
# procedure.summary: AlphaScreen experiment, PYL7 + HAB1
# Assay type: binding
# condition.notes: Half maximum effect concentration EC50 (PYL7 + HAB1), class, class symbol
property.name: EC50

Documented EC50 of CC1=CC(=O)CC(C)(C)[C@@]1(O)/C=C/C(C)=C\C(=O)O [ABA, Abscisic Acid, reference compound] : 1 to 10 µM

###

Form field: pEC50 (one value per entry).
# assayed.system: PYL7 + HAB1 (Arabidopsis thaliana)
# Construct: made in house; host or cells: E. coli BL21 (DE3)
# procedure.summary: AlphaScreen experiment, PYL7 + HAB1
# Format: binding
# condition.notes: number in brackets; read-out: Half maximum effect concentration EC50 (PYL7 + HAB1)
The value called pEC50 is obtained by taking minus log10 of the concentration in mol/L.

Examples with answers:
- compound: "CCCN1C(=O)CCc2cc(NS(=O)(=O)Cc3c(F)c(F)c(C)c(F)c3F)ccc21 [Compound 1127]"
  pEC50: 8.00
- compound: "CCCN1C(=O)CCc2cc(NS(=O)(=O)Cc3ccc(C)cc3F)ccc21 [Compound 1125A]"
  pEC50: 7.40
- compound: "CCCN1C(=O)CCc2cc(NS(=O)(=O)Cc3cc(F)c(C)c(F)c3)ccc21 [Compound 1125B]"
  pEC50: 7.70

The compound identified as CCCN1C(=O)CCc2cc(NS(=O)(=O)Cc3ccc(C)c(F)c3F)ccc21 [Compound 0918] registered its pEC50 at 7.70

Noted for CCCN1C(=O)CCc2cc(NS(=O)(=O)Cc3ccc(C)c(Cl)c3)ccc21 [Compound 1103B] : its pEC50 reads 6.82

Entry CCCN1C(=O)CCc2cc(NS(=O)(=O)Cc3ccc(C)c(F)c3)ccc21 [Compound 0604c] , pEC50 reported as 7.52

###

# assayed.system: PYL2 + HAB1 (Arabidopsis thaliana, UniProt O80992)
# Construct: made in house; host or cells: E. coli BL21 (DE3)
# procedure.summary: AlphaScreen experiment, PYL2 + HAB1
# Assay type: binding
# condition.notes: number in brackets; read-out: Half maximum effect concentration EC50 (PYL2 + HAB1)
property.name: pEC50
Keep it numeric: pEC50 is minus log10 of the concentration in mol/L.

Study these solved cases before continuing.
- compound: "CCCN1C(=O)CC(C)c2cc(NS(=O)(=O)Cc3c(F)c(F)c(C)c(F)c3F)ccc21 (stereo not drawn) [Compound 0720B]"
  pEC50: 7.52
- compound: "CCCN1C(=O)CCc2cc(NS(=O)(=O)Cc3cc(F)c(C)c(F)c3)ccc21 [Compound 1125B]"
  pEC50: 7.70

Shifting focus to the compound that follows.
For reference, reported pEC50 for CCCN1C(=O)CCc2cc(NS(=O)(=O)Cc3ccc(C)c(F)c3F)ccc21 stands at 7.52
